# targetOrSystem: c-Met (Homo sapiens, UniProt P08581)
# Sequence (P08581 25-307): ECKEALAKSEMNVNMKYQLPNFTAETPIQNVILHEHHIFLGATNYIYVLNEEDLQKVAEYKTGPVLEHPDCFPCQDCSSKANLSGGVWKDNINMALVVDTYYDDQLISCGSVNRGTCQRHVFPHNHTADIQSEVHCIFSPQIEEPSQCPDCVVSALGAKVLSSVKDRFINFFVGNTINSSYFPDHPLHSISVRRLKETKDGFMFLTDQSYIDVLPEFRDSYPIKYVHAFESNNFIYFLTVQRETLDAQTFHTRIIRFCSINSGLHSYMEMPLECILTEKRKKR
# Sequence (P08581 308-1390): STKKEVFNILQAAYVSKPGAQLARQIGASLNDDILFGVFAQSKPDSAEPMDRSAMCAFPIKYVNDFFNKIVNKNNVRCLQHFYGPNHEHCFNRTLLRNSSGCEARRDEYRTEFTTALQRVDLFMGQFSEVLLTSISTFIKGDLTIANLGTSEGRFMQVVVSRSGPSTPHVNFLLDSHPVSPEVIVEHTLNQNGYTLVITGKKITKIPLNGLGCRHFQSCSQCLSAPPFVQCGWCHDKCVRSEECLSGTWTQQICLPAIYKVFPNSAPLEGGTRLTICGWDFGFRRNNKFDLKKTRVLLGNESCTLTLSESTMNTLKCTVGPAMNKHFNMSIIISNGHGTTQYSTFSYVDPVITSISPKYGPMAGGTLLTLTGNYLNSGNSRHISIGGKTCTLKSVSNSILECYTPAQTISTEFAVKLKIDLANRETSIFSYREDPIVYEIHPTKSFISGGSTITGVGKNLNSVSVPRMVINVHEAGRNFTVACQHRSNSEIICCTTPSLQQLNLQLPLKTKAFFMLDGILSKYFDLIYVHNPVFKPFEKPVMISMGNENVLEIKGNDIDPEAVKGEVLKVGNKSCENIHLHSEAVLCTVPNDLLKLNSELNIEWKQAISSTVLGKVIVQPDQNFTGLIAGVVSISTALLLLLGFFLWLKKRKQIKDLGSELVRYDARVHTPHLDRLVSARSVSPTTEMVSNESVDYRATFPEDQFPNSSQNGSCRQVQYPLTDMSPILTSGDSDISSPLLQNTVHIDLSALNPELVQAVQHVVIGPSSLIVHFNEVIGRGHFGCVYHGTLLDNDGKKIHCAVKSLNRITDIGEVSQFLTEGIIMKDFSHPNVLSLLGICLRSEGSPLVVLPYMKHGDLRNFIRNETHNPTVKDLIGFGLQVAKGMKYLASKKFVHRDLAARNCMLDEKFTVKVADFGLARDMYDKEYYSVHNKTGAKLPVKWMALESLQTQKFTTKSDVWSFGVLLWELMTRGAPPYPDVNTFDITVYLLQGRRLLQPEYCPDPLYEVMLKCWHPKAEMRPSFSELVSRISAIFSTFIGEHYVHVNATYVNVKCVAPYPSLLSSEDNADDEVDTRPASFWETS
# experimentSummary: radiometric protein kinase assay with recombinant human c-Met
# Format: biochemical
measuredAttribute: IC50 (µM)
Output spec: scalar in µM, unitless text.

Given COc1c(C=O)c(O)cc2c1C(=O)c1ccccc1C2=O [damnacanthal] , state its recorded IC50. 5.1
